biological target: adenosine A2B receptor (Homo sapiens (Human), UniProt P29275); experiment: Adenosine receptor activity assay (Table 1), A2B activity; type: biochemical; settings: A2A activity to A2B activity (A2A/A2B)
Sequence (P29275 whole entry): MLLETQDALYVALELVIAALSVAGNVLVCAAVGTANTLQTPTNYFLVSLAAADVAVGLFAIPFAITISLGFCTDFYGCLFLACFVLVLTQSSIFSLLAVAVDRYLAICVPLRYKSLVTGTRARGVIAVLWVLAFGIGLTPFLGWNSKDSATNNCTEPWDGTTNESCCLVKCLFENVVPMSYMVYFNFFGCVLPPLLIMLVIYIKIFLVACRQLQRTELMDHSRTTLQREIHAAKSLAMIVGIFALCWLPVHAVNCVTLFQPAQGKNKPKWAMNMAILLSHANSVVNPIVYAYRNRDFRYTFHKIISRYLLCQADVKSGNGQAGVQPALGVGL
observable: Ratio

- entry-smiles: "C[C@H](Nc1nc(C(=O)N2CCCOC2)c2sccc2n1)c1ccccn1"
  system: "adenosine A2B receptor (Homo sapiens (Human), UniProt P29275)"
  Ratio: 14.69

(a) CO[C@H]1CCN(C(=O)c2nc(N[C@@H](C)c3ccccn3)nc3ccsc23)C1
(b) COc1cncc(CNc2nc(C(=O)N3CCC3)c3sccc3n2)c1
Ask: Which item exceeds the other in Ratio, a or b ? Let me know the label of the one you choose.
Result: b
(b: 4.17, a: 1.81)
